Cited source: patent US10513521B2

target.desc: ALK3 (Homo sapiens, UniProt P36894)
Sequence (P36894 24-532): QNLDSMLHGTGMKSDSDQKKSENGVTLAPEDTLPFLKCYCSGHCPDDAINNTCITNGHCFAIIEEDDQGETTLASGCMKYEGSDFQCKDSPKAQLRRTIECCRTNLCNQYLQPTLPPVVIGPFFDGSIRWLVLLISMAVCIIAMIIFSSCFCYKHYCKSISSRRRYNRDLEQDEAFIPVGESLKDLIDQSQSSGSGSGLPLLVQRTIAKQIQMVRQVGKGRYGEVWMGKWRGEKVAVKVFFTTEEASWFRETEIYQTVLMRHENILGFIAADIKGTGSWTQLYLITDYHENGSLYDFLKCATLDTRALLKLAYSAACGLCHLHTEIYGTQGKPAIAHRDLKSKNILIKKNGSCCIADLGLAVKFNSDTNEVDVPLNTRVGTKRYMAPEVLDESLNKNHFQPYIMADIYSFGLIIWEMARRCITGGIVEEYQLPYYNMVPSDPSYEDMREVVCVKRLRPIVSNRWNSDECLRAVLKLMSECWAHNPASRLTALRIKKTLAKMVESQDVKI
assay.details: TR-FRET enzymatic ALK kinase assay, ALK3
assay.metric: IC50 (nM)

Recorded IC50, per entry:
1. CS(=O)(=O)c1cccc(-c2cnn3cc(-c4ccc(CCN5CCOCC5)cc4)cnc23)c1 [Compound 131] : 2300
2. C[C@@H]1CNC[C@H](C)N1c1ccc(-c2cnc3c(-c4cccc5ccccc45)cnn3c2)cc1 [Compound 31] : 271
3. C[S+](=O)([O-])c1cccc(-c2cnn3cc(-c4ccc(OC5(CN6CCCC(O)C6)CC5)cc4)cnc23)c1 (stereo not shown) [Compound 186] : 500

A. CC(O)c1cccc(-c2cnn3cc(-c4ccc(OC5(CN6CCNCC6)CC5)cc4)cnc23)c1 (stereo not shown) [Compound 168]
B. C[C@@H]1CNC[C@H](C)N1c1ccc(-c2cnc3c(-c4cc(N)cc5ccccc45)cnn3c2)cc1 [Compound 58]
C. CC(O)c1cccc(-c2cnn3cc(-c4ccc(C5CCCNC5)cc4)cnc23)c1 (stereo not shown) [Compound 138]
D. CC(C)(CN1CCCCC1)Oc1ccc(-c2cnc3c(-c4cccc5c(C(N)=O)cccc45)cnn3c2)cc1 [Compound 18]
Arrange these molecules by their IC50, starting with the largest number. Write the labels, ordered according to the request. C, A, B, D

----------
target.desc: ALK3 (Homo sapiens, UniProt P36894)
assay.details: TR-FRET enzymatic ALK kinase assay, ALK3
assay.metric: IC50 (nM)

Recorded IC50, per entry:
1. CC(O)c1cccc(-c2cnn3cc(-c4ccc(OCCN5CCCCC5)cc4)cnc23)c1 (stereo not shown) [Compound 142] : 1600
2. C[C@@H]1CNC[C@H](C)N1c1ccc(-c2cnc3c(-c4ccc(C(=O)C(F)(F)F)c5ccccc45)cnn3c2)cc1 [Compound 30] : 1610
3. C[S+](=O)([O-])c1cccc(-c2cnn3cc(-c4ccc(OC5(CN6C7CCC6CC7)CC5)cc4)cnc23)c1 [Compound 183] : 1900

A. CC(O)c1cccc(-c2cnn3cc(-c4ccc(CCN5CCC(O)CC5)cc4)cnc23)c1 (stereo not shown) [Compound 151]
B. CS(=O)(=O)c1cccc(-c2cnn3cc(-c4ccc(OCCN5CCCC5)cc4)cnc23)c1 [Compound 108]
Lower IC50: A or B ? Pick one; state its label. B
(B: 2600 nM, A: 4300 nM)

----------
target.desc: ALK4 (Homo sapiens)
Sequence (P36896 24-505): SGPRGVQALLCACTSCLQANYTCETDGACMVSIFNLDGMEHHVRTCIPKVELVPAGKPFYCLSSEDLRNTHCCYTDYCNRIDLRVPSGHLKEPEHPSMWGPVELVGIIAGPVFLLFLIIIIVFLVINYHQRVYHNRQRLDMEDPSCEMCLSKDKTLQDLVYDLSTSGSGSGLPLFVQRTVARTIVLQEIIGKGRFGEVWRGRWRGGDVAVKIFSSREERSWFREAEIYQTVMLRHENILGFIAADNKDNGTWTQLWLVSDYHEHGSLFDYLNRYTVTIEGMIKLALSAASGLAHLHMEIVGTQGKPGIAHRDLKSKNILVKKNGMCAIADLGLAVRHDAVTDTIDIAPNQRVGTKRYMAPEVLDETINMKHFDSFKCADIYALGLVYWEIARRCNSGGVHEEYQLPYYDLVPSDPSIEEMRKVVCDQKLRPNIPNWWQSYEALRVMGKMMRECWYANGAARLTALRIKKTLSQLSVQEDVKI
assay.details: TR-FRET enzymatic ALK kinase assay, ALK4
pIC50: −log10 of the molar value.
assay.metric: pIC50

1) C[S+](=O)([O-])c1cccc(-c2cnn3cc(-c4ccc(OC5(CN6CC(F)(F)C6)CC5)cc4)cnc23)c1 : < 5.00
2) CN1CCC(c2ccc(-c3cnc4c(-c5cccc(C(C)(C)O)c5)cnn4c3)cc2)CC1 : < 5.00
3) CS(=O)(=O)c1cccc(-c2cnn3cc(-c4ccc(OC5(CN6CCC(O)CC6)CC5)cc4)cnc23)c1 : < 5.00
4) N=C(N)c1ccc(-c2cnn3cc(-c4ccc(N5CCNCC5)cc4)cnc23)c2ccccc12 : 4.13
5) C[C@@H](O)c1cccc(-c2cnn3cc(-c4ccc(CCN5CCOCC5)cc4)cnc23)c1 : < 5.00
6) C[C@H](O)c1cccc(-c2cnn3cc(-c4ccc(OCCN5CCCC5)cc4)cnc23)c1 : < 5.00

Now let's try a different one.
Quick check: pIC50 of C[C@@H]1CNC[C@H](C)N1c1ccc(-c2cnc3c(-c4ccc(-c5nn[nH]n5)c5ccccc45)cnn3c2)cc1 ? 5.52
